# maps each entry to its pEC50
Biological target: human TGR5 receptor (Homo sapiens)
Sequence (Q8TDU6 whole entry): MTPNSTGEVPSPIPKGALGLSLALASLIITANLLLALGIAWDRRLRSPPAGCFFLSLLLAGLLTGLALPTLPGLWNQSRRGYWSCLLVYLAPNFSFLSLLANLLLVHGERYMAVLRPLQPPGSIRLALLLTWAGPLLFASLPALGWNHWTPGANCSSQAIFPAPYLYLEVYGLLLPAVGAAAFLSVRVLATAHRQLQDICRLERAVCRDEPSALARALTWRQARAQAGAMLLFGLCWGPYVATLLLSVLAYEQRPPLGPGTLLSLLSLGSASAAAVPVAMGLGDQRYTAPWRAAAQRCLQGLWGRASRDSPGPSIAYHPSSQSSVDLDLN
Assay: Human TGR5 cAMP production assay (hTGR5-CHO cells, DiscoveRx cAMP XS+ kit)
Conditions: luminescent cAMP assay, read-out: Human TGR5 Lum. cAMP Activity (EC50)
pEC50: −log10 of the molar value.

{"SUBSTANCE SMILES": "N#Cc1ccc(CCNC(=O)[C@@H]2CCCN2c2cc(N3CCC(CCNC(=O)N[C@H](CC(=O)O)C(=O)O)CC3)nc(C(F)(F)F)n2)cc1", "SYSTEM TESTED": "human TGR5 receptor (Homo sapiens)", "REPORTED VALUE": "> 7.00"}
{"SUBSTANCE SMILES": "N#Cc1ccc(CCNC(=O)[C@@H]2CCCN2c2cc(N3CCC(CCCC(=O)NCCOCCOCCNC(=N)N)CC3)nc(C(F)(F)F)n2)cc1", "SYSTEM TESTED": "human TGR5 receptor (Homo sapiens)", "REPORTED VALUE": "> 7.00"}

Given the compound CN(C)CCN1CCN(c2cc(N3CC[C@H]3C(=O)NCCc3ccc(C#N)cc3)nc(C(F)(F)F)n2)CC1 , what is its reported pEC50?
6.00 to 7.00

###

Molecular target: human TGR5 receptor (Homo sapiens)
Experiment: Human TGR5 cAMP production assay (hTGR5-CHO cells, DiscoveRx cAMP XS+ kit)
Details: luminescent cAMP assay, read-out: Human TGR5 Lum. cAMP Activity (EC50)
# maps each entry to its EC50

Answered cases to consult:
{"SUBSTANCE SMILES": "N#Cc1ccc(CCNC(=O)[C@@H]2CCCN2c2cc(N3CCC(CCCC(=O)N[C@H](CC(=O)O)C(=O)O)CC3)nc(C(F)(F)F)n2)cc1", "EC50": "< 100 nM"}
{"SUBSTANCE SMILES": "N#Cc1ccc(CCNC(=O)[C@@H]2CCN2c2cc(N3CCC(CCCC(=O)NCS(=O)(=O)O)CC3)nc(C(F)(F)F)n2)cc1", "EC50": "< 100 nM"}
{"SUBSTANCE SMILES": "CC(C)(C)OC(=O)CCNc1c(NCCC2CCN(c3cc(N4CC[C@H]4C(=O)NCCc4ccc(C#N)cc4)nc(C(F)(F)F)n3)CC2)c(=O)c1=O", "EC50": "100 to 999 nM"}

Given the compound O=C(NCCc1ccc(C(F)(F)F)cc1)[C@@H]1CCCN(c2cc(N3CCN(C(=O)CO)CC3)nc(C(F)(F)F)n2)C1 , what is its reported EC50?
100 to 999 nM

Given the compound N#Cc1ccccc1CCNC(=O)[C@@H]1CCCN1c1cc(N2CCC(CCCC(=O)NCS(=O)(=O)O)CC2)nc(C(F)(F)F)n1 , what is its reported EC50?
< 100 nM

Given the compound COCC1CCN(c2cc(N3CCC[C@H]3C(=O)NCCc3ccc(C(F)(F)F)cc3)nc(C(F)(F)F)n2)CC1 , what is its reported EC50?
< 100 nM

###

# maps each entry to its Cmax
Experiment: Pharmacokinetic profile in mice after oral gavage
Type: in vivo, mouse
Conditions: mouse; fasted male Hilltop mice, 10 mg/kg oral gavage, plasma; read-out: Cmax

Answered cases to consult:
{"SUBSTANCE SMILES": "N#Cc1ccc(CCNC(=O)[C@@H]2CCCN2c2cc(N3CCC(CCCC(=O)N[C@@H](CCCNC(=N)N)C(=O)N[C@@H](CCCNC(=N)N)C(=O)O)CC3)cc(C(F)(F)F)n2)cc1", "Cmax": "< 0.1 ng/mL"}
{"SUBSTANCE SMILES": "N#Cc1ccc(CCNC(=O)[C@@H]2CCCN2c2cc(N3CCC(CCNC(=O)NCCS(=O)(=O)NCC(=O)O)CC3)nc(C(F)(F)F)n2)cc1", "Cmax": "0.4 ng/mL"}
{"SUBSTANCE SMILES": "O=C(CCCC1CCN(c2cc(N3CCC[C@H]3C(=O)NCCc3ccc(C(F)(F)F)cc3)nc(C(F)(F)F)n2)CC1)NCCNS(=O)(=O)c1ccc(C(=O)O)cc1", "Cmax": "26 ng/mL"}
{"SUBSTANCE SMILES": "O=C(CCCC1CCN(c2cc(N3CC[C@H]3C(=O)NCCc3ccc(C(F)(F)F)cc3)nc(C(F)(F)F)n2)CC1)NCS(=O)(=O)O", "Cmax": "64 ng/mL"}

Given the molecule N#Cc1ccc(CCNC(=O)[C@@H]2CCCN2c2cc(N3CCC(CCNC(=N)N)CC3)nc(C(F)(F)F)n2)cc1 , what is its reported Cmax?
2 ng/mL

Given the molecule O=C(NCCC1CCN(c2cc(N3CCC[C@H]3C(=O)NCCc3ccc(C(F)(F)F)cc3)nc(C(F)(F)F)n2)CC1)NCCS(=O)(=O)O , what is its reported Cmax?
13 ng/mL

###

Target: human TGR5 receptor (Homo sapiens)
Assay: Human TGR5 cAMP production assay (hTGR5-CHO cells, DiscoveRx cAMP XS+ kit)
Settings: luminescent cAMP assay, read-out: Human TGR5 Lum. cAMP Activity (EC50)
# maps each entry to its EC50

Answered cases to consult:
{"COMPOUND": "N#Cc1ccc(CCNC(=O)[C@@H]2CCN2c2cc(N3CCC(CCCC(=O)NCCOCCNS(=O)(=O)c4ccc(C(=O)O)cc4)CC3)nc(C(F)(F)F)n2)cc1 [Compound 291]", "SYSTEM TESTED": "human TGR5 receptor (Homo sapiens)", "EC50": "0.1 to 0.999 µM"}
{"COMPOUND": "N#Cc1ccc(CCNC(=O)[C@@H]2CCCN2c2cc(N3CCC(CCCNC(=O)NCCS(=O)(=O)O)CC3)nc(C(F)(F)F)n2)cc1 [Compound 119]", "SYSTEM TESTED": "human TGR5 receptor (Homo sapiens)", "EC50": "< 0.1 µM"}
{"COMPOUND": "N#Cc1ccc(CCNC(=O)[C@@H]2CCN2c2cc(N3CCC(CCNC(=O)NCCOCCNC(=O)NCCC(=O)O)CC3)nc(C(F)(F)F)n2)cc1 [Compound 360]", "SYSTEM TESTED": "human TGR5 receptor (Homo sapiens)", "EC50": "< 0.1 µM"}

Param readout= EC50; system= human TGR5 receptor (Homo sapiens); entry= N#Cc1ccc(CCNC(=O)[C@@H]2CCN2c2cc(N3CCC(CO)CC3)nc(C(F)(F)F)n2)cc1 [Compound 219] ; returns value.
< 0.1 µM

###

Target: mouse TGR5 receptor (Mus musculus)
Construct: host or cells: HEK293-EBNA (293 c18, ATCC CRL10852)
Sequence (Q80SS6 whole entry): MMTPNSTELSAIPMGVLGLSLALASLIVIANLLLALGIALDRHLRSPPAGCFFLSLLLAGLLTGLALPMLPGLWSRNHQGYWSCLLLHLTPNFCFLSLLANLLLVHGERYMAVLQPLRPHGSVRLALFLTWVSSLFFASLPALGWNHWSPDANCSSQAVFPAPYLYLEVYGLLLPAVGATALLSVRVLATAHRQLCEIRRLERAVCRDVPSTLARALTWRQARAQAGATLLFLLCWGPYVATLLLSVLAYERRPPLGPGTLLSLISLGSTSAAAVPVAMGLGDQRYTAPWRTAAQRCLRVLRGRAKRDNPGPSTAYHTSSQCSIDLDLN
Assay: Mouse TGR5 luminescent cAMP production assay (HEK293-EBNA cells, DiscoveRx cAMP XS+ kit)
Assay type: cell-based
Settings: HEK293-EBNA cells overexpressing mouse TGR5, luminescent cAMP assay; read-out: Mouse TGR5 Lum. cAMP Activity (EC50)
pEC50: −log10 of the molar value.
OBSERVATION TYPE: pEC50

Answered cases to consult:
{"COMPOUND": "CNCC1CCN(c2cc(N3CCC[C@H]3C(=O)NCCc3ccc(C#N)cc3)nc(C(F)(F)F)n2)CC1 [Compound 49]", "pEC50": "6.00 to 7.00"}
{"COMPOUND": "O=C(NCCc1ccc(C(F)(F)F)cc1)[C@@H]1CCCN1c1cc(OC2CCOCC2)nc(C(F)(F)F)n1 [Compound 40]", "pEC50": "> 7.00"}
{"COMPOUND": "N#Cc1ccc(CCNC(=O)[C@@H]2CCCN2c2cc(OC3CCNCC3)nc(C(F)(F)F)n2)cc1 [Compound 51]", "pEC50": "6.00 to 7.00"}
{"COMPOUND": "N#Cc1ccc(CCNC(=O)[C@@H]2C[C@@H](O)CN2c2cc(N3CCC(CCO)CC3)nc(C(F)(F)F)n2)cc1 [Compound 210]", "pEC50": "6.00 to 7.00"}

Given the compound COc1ccc(Oc2cc(N3CCC[C@H]3C(=O)NCCc3ccc(C#N)cc3)nc(C(F)(F)F)n2)cc1 [Compound 44] , what is its reported pEC50?
6.00 to 7.00

###

# maps each entry to its pEC50
Target: human TGR5 receptor (Homo sapiens)
Assay: Human TGR5 cAMP production assay (hTGR5-CHO cells, DiscoveRx cAMP XS+ kit)
Details: luminescent cAMP assay, read-out: Human TGR5 Lum. cAMP Activity (EC50)
pEC50: −log10 of the molar value.

{"MOLECULE": "COc1cc(C(F)(F)F)ccc1CCNC(=O)[C@@H]1CCN1c1cc(N2CCC(CCO)CC2)nc(C(F)(F)F)n1", "pEC50": "> 7.00"}
{"MOLECULE": "CN(C)CC1CCN(c2cc(N3CCC[C@H]3C(=O)NCCc3ccc(C#N)cc3)nc(C(F)(F)F)n2)CC1", "pEC50": "6.00 to 7.00"}
{"MOLECULE": "N#Cc1ccc(CCNC(=O)[C@@H]2CCN2c2cc(N3CCC(CCNS(=O)(=O)NCCC(=O)O)CC3)nc(C(F)(F)F)n2)cc1", "pEC50": "> 7.00"}
{"MOLECULE": "N=C(N)NCCCC1CCN(c2cc(N3CCC[C@H]3C(=O)NCCc3ccc(C(F)(F)F)cc3)nc(C(F)(F)F)n2)CC1", "pEC50": "> 7.00"}

Given the molecule N#Cc1ccc(CCNC(=O)[C@@H]2CCN2c2cc(N3CCC(CCNC(=O)NCCOCCNC(=N)N)CC3)nc(C(F)(F)F)n2)cc1 , what is its reported pEC50?
> 7.00

Given the molecule CC(C)(C)OC(=O)NCCC1CCN(c2cc(N3CCC[C@@H](C(=O)NCCc4ccc(C#N)cc4)C3)nc(C(F)(F)F)n2)CC1 , what is its reported pEC50?
6.00 to 7.00

Given the molecule O=C(NCCc1ccc(C(F)(F)F)cc1)[C@@H]1CCCN1c1cc(N2CCC(CO)CC2)nc(C(F)(F)F)n1 , what is its reported pEC50?
> 7.00

Given the molecule N#Cc1ccc(CCNC(=O)[C@@H]2CCCN2c2cc(N3CCC(CCNc4c(NCCC(=O)O)c(=O)c4=O)CC3)nc(C(F)(F)F)n2)cc1 , what is its reported pEC50?
> 7.00
